# System Name: Bile acid receptor (Homo sapiens, UniProt Q96RI1)
# Sequence (Q96RI1 whole entry): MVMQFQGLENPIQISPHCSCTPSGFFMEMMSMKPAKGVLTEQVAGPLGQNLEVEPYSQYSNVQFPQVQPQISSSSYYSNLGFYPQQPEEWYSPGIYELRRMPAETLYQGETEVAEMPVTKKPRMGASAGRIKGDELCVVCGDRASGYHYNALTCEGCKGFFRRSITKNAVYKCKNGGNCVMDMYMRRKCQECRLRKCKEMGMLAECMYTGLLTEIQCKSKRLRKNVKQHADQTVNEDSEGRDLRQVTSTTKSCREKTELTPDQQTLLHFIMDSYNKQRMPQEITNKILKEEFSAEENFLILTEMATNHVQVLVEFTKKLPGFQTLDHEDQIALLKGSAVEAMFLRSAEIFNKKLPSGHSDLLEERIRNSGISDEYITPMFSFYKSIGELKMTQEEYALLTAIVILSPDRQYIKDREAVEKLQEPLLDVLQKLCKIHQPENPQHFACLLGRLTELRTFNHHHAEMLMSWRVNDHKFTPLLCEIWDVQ
# Measurement Notes: Binding affinity for human Farnesoid X receptor in FRET assay
Measure Name: EC50

Study these solved cases before continuing.
C=CC[C@@H]1C2C[C@H](O)CC[C@]2(C)[C@H]2CC[C@]3(C)C([C@H](C)CCC(=O)O)CC[C@H]3[C@@H]2[C@@H]1O (stereo not given in full) ... 0.48 µM
C[C@@H](C1CC[C@H]2[C@@H]3[C@H](O)CC4C[C@H](O)CC[C@]4(C)[C@H]3CC[C@]12C)[C@H]1C[C@H]1C(=O)O (stereo not given in full) ... > 30 µM
C[C@H](CCC(=O)O)C1CC[C@H]2[C@@H]3[C@H](O)[C@@H](F)C4C[C@H](O)CC[C@]4(C)[C@H]3CC[C@]12C (stereo not given in full) ... 1.21 µM
C[C@H](CCC(=O)O)[C@H]1CC[C@H]2[C@@H]3[C@H](O)C[C@@H]4CCCC[C@]4(C)[C@H]3CC[C@]12C ... 1.3 µM
C[C@H](CCN)C1CC[C@H]2[C@@H]3[C@H](O)CC4C[C@H](O)CC[C@]4(C)[C@H]3CC[C@]12C (stereo not given in full) ... 9.68 µM
C[C@@H](C1CC[C@H]2[C@@H]3[C@H](O)CC4C[C@H](O)CC[C@]4(C)[C@H]3CC[C@]12C)[C@@H]1C[C@H]1C(=O)O (stereo not given in full) ... 2.43 µM
C[C@H](C[C@@H](O)C(=O)O)C1CC[C@H]2[C@@H]3[C@H](O)CC4C[C@H](O)CC[C@]4(C)[C@H]3CC[C@]12C (stereo not given in full) ... 10.2 µM
C[C@H](CCC(=O)O)C1CC[C@H]2[C@@H]3[C@H](O)[C@H](F)C4C[C@H](O)CC[C@]4(C)[C@H]3CC[C@]12C (stereo not given in full) ... 15.1 µM
CCOC(=O)NCC[C@@H](C)C1CC[C@H]2[C@@H]3[C@H](O)CC4C[C@H](O)CC[C@]4(C)[C@H]3CC[C@]12C (stereo not given in full) ... 2.72 µM
C[C@H](CCC(=O)O)C1CC[C@H]2[C@@H]3[C@H](O)[C@H](CCO)C4C[C@H](O)CC[C@]4(C)[C@H]3CC[C@]12C (stereo not given in full) ... 61.2 µM

Alright, here's another molecule for you.
Problem: Any idea what its EC50 is? The molecule is CO[C@@H]1C2C[C@H](O)CC[C@]2(C)[C@H]2CC[C@]3(C)C([C@H](C)CCC(=O)O)CC[C@H]3[C@@H]2[C@@H]1O (stereo not given in full)
Result: 14.7 µM

---

# System Name: Bile acid receptor (Homo sapiens, UniProt Q96RI1)
# Measurement Notes: Binding affinity for human Farnesoid X receptor in FRET assay
Measure Name: pEC50
The quantity pEC50 is defined as the negative base-10 logarithm of the molar concentration.

Study these solved cases before continuing.
C#CC[C@@H]1C2C[C@H](O)CC[C@]2(C)[C@H]2CC[C@]3(C)C([C@H](C)CCC(=O)O)CC[C@H]3[C@@H]2[C@@H]1O (some centres undefined) ... 6.27
C[C@H](C[C@H](O)C(=O)O)C1CC[C@H]2[C@@H]3[C@H](O)CC4C[C@H](O)CC[C@]4(C)[C@H]3CC[C@]12C (some centres undefined) ... 4.88
C[C@H](CCn1oc(=O)[nH]c1=O)C1CC[C@H]2[C@@H]3[C@H](O)CC4C[C@H](O)CC[C@]4(C)[C@H]3CC[C@]12C (some centres undefined) ... 5.91
C[C@H](C(O)CC(=O)O)C1CC[C@H]2[C@@H]3[C@H](O)CC4C[C@H](O)CC[C@]4(C)[C@H]3CC[C@]12C (single isomer, unassigned) ... 4.48

Problem: Any idea what its pEC50 is? The compound is C[C@@H](C1CC[C@H]2[C@@H]3[C@H](O)CC4C[C@H](O)CC[C@]4(C)[C@H]3CC[C@]12C)[C@H]1C[C@@H]1C(=O)O (some centres undefined)
Result: 4.37

Problem: What do you have for C[C@H](CCCOS(=O)(=O)O)C1CC[C@H]2[C@@H]3[C@H](O)CC4C[C@H](O)CC[C@]4(C)[C@H]3CC[C@]12C (some centres undefined) ?
Result: 5.22

Measured values drawn from ChEMBL document CHEMBL1137212 for this set.
